Form field: % inhibition of farnesyltransferase (one value per entry).
# assayTarget: protein farnesyltransferase (Rattus norvegicus, UniProt Q02293+Q04631)
# Construct: Rat brain protein farnesyltransferase activity is measured; from tissue; host or cells: rat brain; purified according to Reiss et al., Cell 62:81-88 (1990), steps one through three
# assayDetails: in vitro inhibition of protein farnesyltransferase (scintillation proximity assay, biotin-K Ras B fragment)
# Format: biochemical
# conditionDescription: at 1 × 10^-6 M
endpointName: % inhibition of farnesyltransferase (%)

| compound | assayTarget | observed |
| --- | --- | --- |
| CSCC[C@H](NC(=O)c1ccc(CC(Cc2ccccc2)c2ccccc2)cc1-c1ccccc1C)C(=O)[O-].[Li+] (stereo partly shown) [Example 572] | protein farnesyltransferase (Rattus norvegicus, UniProt Q02293+Q04631) | 91 |
| CSCC[C@H](NC(=O)c1ccc(/C=C/CCc2ccccc2)cc1-c1ccccc1C)C(=O)O [Example 472] | protein farnesyltransferase (Rattus norvegicus, UniProt Q02293+Q04631) | 97 |
| CSCCC(NC(=O)c1ccc(CNC(CO)c2ccccc2)cc1-c1ccccc1)C(=O)O (stereo not shown) [Example 658] | protein farnesyltransferase (Rattus norvegicus, UniProt Q02293+Q04631) | 73 |
| CSCC[C@H](NC(=O)c1ccc(/C=C/CC(O)c2ccc3ccccc3c2)cc1-c1ccccc1C)C(=O)O (stereo partly shown) [Example 474] | protein farnesyltransferase (Rattus norvegicus, UniProt Q02293+Q04631) | 92 |

----------
# assayTarget: protein farnesyltransferase (Rattus norvegicus, UniProt Q02293+Q04631)
# Construct: Rat brain protein farnesyltransferase activity is measured; from tissue; host or cells: rat brain; purified according to Reiss et al., Cell 62:81-88 (1990), steps one through three
# assayDetails: in vitro inhibition of protein farnesyltransferase (scintillation proximity assay, biotin-K Ras B fragment)
# Type: biochemical
# conditionDescription: at 1 × 10^-5 M

| molecule | inhibition at 10 µM / % |
| --- | --- |
| COc1cc(I)c(C(=O)Nc2ccc(C(=O)N[C@@H](CCSC)C(=O)O)c(-c3ccccc3)c2)cc1OC | 47 |
| CSCC[C@H](NC(=O)c1ccc(CNc2ccc(O)cc2)cc1-c1ccccc1)C(=O)O | 73 |
| CSCC[C@H](NC(=O)c1ccc(CNC(CO)C(O)c2ccccc2)cc1-c1ccccc1)C(=O)O (stereo partly shown) | 40 |
| CSCC[C@H](NC(=O)c1ccc(CNc2ccc3ncccc3c2)cc1-c1ccccc1)C(=O)O | 76 |

----------
# assayTarget: protein farnesyltransferase (Rattus norvegicus, UniProt Q02293+Q04631)
# Construct: Rat brain protein farnesyltransferase activity is measured; from tissue; host or cells: rat brain; purified according to Reiss et al., Cell 62:81-88 (1990), steps one through three
# assayDetails: in vitro inhibition of protein farnesyltransferase (scintillation proximity assay, biotin-K Ras B fragment)
# Type: biochemical
# conditionDescription: at 1 × 10^-6 M
Quick reference for % inhibition of farnesyltransferase among some molecules

| molecule | measureUnit | % inhibition of farnesyltransferase |
| --- | --- | --- |
| COc1ccc(CCNS(=O)(=O)c2ccc(C(=O)N[C@@H](CCSC)C(=O)O)c(-c3ccccc3C)c2)cc1OC [Example 776] | % | 36 |
| Cc1ccccc1-c1cc(CN(C2CC2)C(C)(C)Cc2ccccc2)ccc1C(=O)N[C@@H](CCS(C)(=O)=O)C(=O)O [Example 319] | % | 98 |
| CSCC[C@H](NC(=O)c1ccc(CN2CCN(c3ccccc3)CC2)cc1-c1ccccc1C)C(=O)O [Example 867] | % | 71 |
| CSCC[C@H](NC(=O)c1ccc(CN(C2CC2)C2(Cc3ccccc3)CCC2)cc1-c1ccccc1C)C(=O)O [Example 329] | % | 98 |
